# Tested on: MCH58 fibroblasts
# EXPERIMENT NOTES: Glucose versus galactose cell growth screen (metabolic state-dependent lethality)
# RECORDED CONDITIONS: approximately 10 μM compound, 72 hours; log10 fold change of normalized cell number in glucose versus galactose
Where a name gives a salt, the structure may show the parent alone.
MEASURED QUANTITY: Sglu/gal (log10 fold change) Score

COMPOUND	Sglu/gal (log10 fold change) Score
Oc1c(Cl)cc(Cl)c2cccnc12	−0.23
Cc1c(O)c(O)cc2c1CC=C1[C@@]2(C)CC[C@@]2(C)[C@@H]3C[C@](C)(C(=O)O)CC[C@]3(C)CC[C@]12C [dihydrocelastrol]	−0.31
CCCCC(CC)CNC(=N)NC(=N)NCCCCCCNC(=N)NC(=N)NCC(CC)CCCC (stereo not shown) [Alexidine dihydrochloride]	0.44
CCN(CC)CCOc1ccc(C(=C(Cl)c2ccccc2)c2ccccc2)cc1 [Clomiphene citrate]	0.21
Cc1cccc(CN2CCN(C(c3ccccc3)c3ccc(Cl)cc3)CC2)c1 (racemic) [Meclizine, meclizine hydrochloride]	0.16
C[C@@H]1CC[C@H]2[C@@H](C)C(=O)O[C@@H]3O[C@@]4(C)CC[C@@H]1[C@]32OO4	0.17

Turning now to a further record.
[Q] Sglu/gal (log10 fold change) Score for CC[C@H]1CN2CCc3cc(OC)c(OC)cc3[C@@H]2C[C@@H]1C[C@H]1NCCc2cc(OC)c(OC)cc21 ?
[A] −0.22
